// provenance: the supplement of paper PMC8728848

Listed binders paired with reported glycan array binding signal (z-score)
- SYSTEM_NAME: Kdn(a2-6)Gal(b1-4)GlcNAc
- PROCEDURE_DETAILS: glycan array binding signal (z-score within array); higher = stronger binding
- EXPERIMENTAL_CONTEXT: glycan notation: IUPAC condensed, linker removed
This excerpt belongs to a sample that is enriched for the strongest signals.
QUANTITY_NAME: glycan array binding signal (z-score)

[[record]]
binder = "SEX4 (Arabidopsis thaliana), Q944A8 (protein) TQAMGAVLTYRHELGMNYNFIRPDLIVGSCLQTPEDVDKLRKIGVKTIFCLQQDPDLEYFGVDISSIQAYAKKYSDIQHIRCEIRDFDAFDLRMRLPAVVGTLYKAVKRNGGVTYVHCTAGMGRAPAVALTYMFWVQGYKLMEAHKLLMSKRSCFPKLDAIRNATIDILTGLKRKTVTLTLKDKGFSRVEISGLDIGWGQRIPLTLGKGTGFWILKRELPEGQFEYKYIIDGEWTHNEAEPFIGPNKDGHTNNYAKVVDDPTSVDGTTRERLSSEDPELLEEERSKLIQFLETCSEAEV"
observed = -0.36

[[record]]
binder = "Langerin K299A/K313A (Homo sapiens), Q9UJ71 (protein) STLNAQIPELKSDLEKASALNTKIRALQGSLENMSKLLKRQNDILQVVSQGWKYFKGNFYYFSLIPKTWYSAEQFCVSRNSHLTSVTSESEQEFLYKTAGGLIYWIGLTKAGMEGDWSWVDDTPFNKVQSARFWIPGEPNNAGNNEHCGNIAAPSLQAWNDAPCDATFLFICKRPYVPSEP"
observed = 0.407

[[record]]
binder = "Cohesin-hDECTIN-1 (Homo sapiens) (protein) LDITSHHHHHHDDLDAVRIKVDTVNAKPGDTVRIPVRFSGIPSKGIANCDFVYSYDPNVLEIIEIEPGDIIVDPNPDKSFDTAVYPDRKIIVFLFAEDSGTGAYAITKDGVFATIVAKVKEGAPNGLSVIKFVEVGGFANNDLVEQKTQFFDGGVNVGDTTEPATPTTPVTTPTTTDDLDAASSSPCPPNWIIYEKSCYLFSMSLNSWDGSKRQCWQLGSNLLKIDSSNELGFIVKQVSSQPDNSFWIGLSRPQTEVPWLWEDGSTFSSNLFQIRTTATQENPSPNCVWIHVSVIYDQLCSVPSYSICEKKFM"
observed = -0.471

